Measured inhibition at 10 µM by item
biological target: phospho p-38 alpha kinase (Homo sapiens, UniProt Q16539); construct: purchased Panvera; experiment: P-38 alpha kinase assay (spectrophotometric, pyruvate kinase/lactate dehydrogenase coupled); type: biochemical; settings: read-out: % Inhibition @ concentration, Table 3; at 10 uM
Sequence (Q16539 whole entry): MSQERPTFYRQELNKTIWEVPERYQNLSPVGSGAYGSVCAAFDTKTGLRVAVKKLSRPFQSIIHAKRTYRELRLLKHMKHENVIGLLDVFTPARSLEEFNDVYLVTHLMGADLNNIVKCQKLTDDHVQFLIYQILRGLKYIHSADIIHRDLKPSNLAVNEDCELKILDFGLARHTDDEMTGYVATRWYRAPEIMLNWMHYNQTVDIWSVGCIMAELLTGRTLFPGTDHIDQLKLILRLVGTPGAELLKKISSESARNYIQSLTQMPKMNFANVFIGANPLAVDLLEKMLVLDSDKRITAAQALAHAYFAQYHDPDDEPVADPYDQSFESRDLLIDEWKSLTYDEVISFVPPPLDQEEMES
Numeric answer only, unit % assumed.

{"molecular-string": "CC(C)(O)c1cccc(-n2nc(-c3ccccc3)cc2NC(=O)Nc2cccc3ccccc23)c1", "units-text": "%", "inhibition at 10 µM": 24}
{"molecular-string": "COc1cccc(-n2nc(C(C)(C)C)cc2NC(=O)Nc2cccc(N(C)C)c2)c1", "units-text": "%", "inhibition at 10 µM": 40}

[in] Please report the recorded inhibition at 10 µM for COc1cccc(-n2nc(C(C)(C)C)cc2NC(=O)Nc2cccnc2)c1 .
[out] 68

[in] Dear colleague, I am looking for the recorded inhibition at 10 µM of the following compound: COc1cccc(-n2nc(C)cc2NC(=O)Nc2cccc(Br)c2)c1
[out] 8

---

target: phospho p-38 alpha kinase (Homo sapiens); construct: purchased Panvera; test: P-38 alpha kinase assay (spectrophotometric, pyruvate kinase/lactate dehydrogenase coupled); type: biochemical; conditions: Table 3; rates from […] to 2 h time frame
Listed here are molecules together with their documented pIC50.
Reminder that pIC50 means the negative base-10 logarithm of the concentration expressed in mol/L.

Known results for molecules:
{"molecule": "CC(C)(C)C1=NC(c2ccc(CC(=O)O)cc2)C(NC(=O)Nc2ccc(Cl)cc2)=C1 (stereo not shown) [Example 506]", "system-name": "phospho p-38 alpha kinase (Homo sapiens)", "pIC50": 7.38}
{"molecule": "CC(C)(C)c1cc(NC(=O)Nc2cccc(F)c2F)n(-c2cccc(CO)c2)n1 [Example 395]", "system-name": "phospho p-38 alpha kinase (Homo sapiens)", "pIC50": 7.25}
{"molecule": "CCOC(=O)c1cccc(-n2nc(C(C)(C)C)cc2NC(=O)Nc2cccc(Cl)c2Cl)c1 [Example 474]", "system-name": "phospho p-38 alpha kinase (Homo sapiens)", "pIC50": 6.42}

Query molecule follows.
[in] Quick check: pIC50 of CC(C)(C)c1cc(NC(=O)Nc2ccc3c(c2)OCO3)n(-c2cccc(CO)c2)n1 [Example 397] ?
[out] 7.40

---

biological target: phospho p-38 alpha kinase (Homo sapiens, UniProt Q16539); construct: purchased Panvera; assay: P-38 alpha kinase assay (spectrophotometric, pyruvate kinase/lactate dehydrogenase coupled); format: biochemical; conditions: Table 3; rates from […] to 2 h time frame
measure: pIC50
// field semantics: pIC50 = negative decimal log of concentration (mol/L)

{"compound": "CC(C)(C)c1cc(NC(=O)Nc2ccc(Cl)cc2)n(-c2cccc(C#N)c2)n1", "pIC50": 7.00}
{"compound": "O=C(Nc1cccc(Cl)c1)Nc1cc(-c2ccccc2)nn1-c1cccc(CO)c1", "pIC50": 7.00}
{"compound": "COc1cccc(-n2nc(C(C)(C)C)cc2NC(=O)Nc2ccc(Cl)c(Cl)c2)c1", "pIC50": 7.17}
{"compound": "CC(Cc1ccc(-n2nc(C(C)(C)C)cc2NC(=O)Nc2cccc3ccccc23)cc1)C(=O)O (centres unmarked)", "pIC50": 6.85}
{"compound": "CC(C)(C)c1cc(NC(=O)Nc2ccc3c(c2)OCO3)n(-c2cccc(C#N)c2)n1", "pIC50": 6.89}

[in] What pIC50 value was documented for this compound, CC(C)(C)c1cc(NC(=O)Nc2ccc3c(c2)OCO3)n(-c2cccc(CN)c2)n1 ?
[out] 6.04

[in] # input compound: C#CC(O)c1cccc(-n2nc(C(C)(C)C)cc2NC(=O)Nc2cccc3ccccc23)c1 (centres unmarked) ; wanted: its pIC50
[out] 8.40

[in] Bench note: what pIC50 did O=C(Nc1cccc(C(F)(F)F)c1)Nc1cc(-c2ccccc2)nn1-c1cccc(CO)c1 show?
[out] 5.96

[in] Look up pIC50: CC(C)(C)c1cc(NC(=O)Nc2cccc(C(F)(F)F)c2)n(-c2cccc(CN)c2)n1
[out] 5.35

[in] What does the record list as pIC50 for COc1cccc(-n2nc(C(C)(C)C)cc2NC(=O)Nc2cccc(F)c2)c1 ?
[out] 6.89

---

biological target: phospho p-38 alpha kinase (Homo sapiens); construct: purchased Panvera; assay: P-38 alpha kinase assay (spectrophotometric, pyruvate kinase/lactate dehydrogenase coupled); format: biochemical; details: read-out: % Inhibition @ concentration, Table 3; at 10 uM
measure: inhibition at 10 µM
Please make sure the unit comes right after the number.

[in] Consider the molecule shown here: COc1cccc(-n2nc(-c3ccccc3)cc2NC(=O)Nc2cccc(Cl)c2)c1 [Example 331] What is its recorded inhibition at 10 µM?
[out] 71%

[in] Need inhibition at 10 µM, item COc1cccc(-n2nc(C)cc2NC(=O)Nc2cccc(Cl)c2)c1 [Example 336]
[out] 27%

[in] Suppose we examine the molecule CN1CCN(C(=O)NCc2cccc(-n3nc(C(C)(C)C)cc3NC(=O)Nc3ccc(Cl)cc3)c2)CC1 [Example 493] ; what inhibition at 10 µM value has been reported?
[out] 73%

[in] Endpoint output: inhibition at 10 µM of COc1cccc(-n2nc(C(C)(C)C)cc2NC(=O)Nc2cccc(C(F)(F)F)c2)c1 [Example 315] . Value?
[out] 54%

[in] // returns reported inhibition at 10 µM for input CC(C)(C)c1cc(NC(=O)Nc2cccc(Br)c2)n(-c2cccc(CN)c2)n1 [Example 384]
[out] 96%

---

target: phospho p-38 alpha kinase (Homo sapiens, UniProt Q16539); construct: purchased Panvera; assay: P-38 alpha kinase assay (spectrophotometric, pyruvate kinase/lactate dehydrogenase coupled); type: biochemical; conditions: Table 3; rates from […] to 2 h time frame
measure: IC50 (nM)
A number alone suffices; assume nM.

Study these solved cases before continuing.
{"molecular-string": "CC(C)(C)c1cc(NC(=O)Nc2cccc(Cl)c2Cl)n(-c2cccc(CO)c2)n1", "units-text": "nM", "IC50": 10}
{"molecular-string": "CN(C)C(=O)NCc1cccc(-n2nc(C(C)(C)C)cc2NC(=O)Nc2cccc3ccccc23)c1", "units-text": "nM", "IC50": 38}

[in] Item under review: COc1cccc(NC(=O)Nc2cc(C(C)(C)C)nn2-c2cccc(CN)c2)c1 . Reported IC50?
[out] 1650

[in] Would you mind telling me what IC50 value was observed for CN(C)CCc1cccc(-n2nc(C(C)(C)C)cc2NC(=O)Nc2cccc(Cl)c2Cl)c1 ?
[out] 100

[in] So what does the record say about IC50 for CC(C)(C)c1cc(NC(=O)Nc2ccc3c(c2)OCO3)n(-c2ccc3c(c2)CNCC3)n1 ?
[out] 410

[in] Which IC50 is reported for this compound? COc1cccc(NC(=O)Nc2cc(-c3ccccc3)nn2-c2cccc(CO)c2)c1
[out] 1000

[in] Given the compound CC(C)(C)c1cc(NC(=O)Nc2cccc(C(F)(F)F)c2)n(-c2cccc(C#N)c2)n1 , what is its reported IC50?
[out] 870

---

target: phospho p-38 alpha kinase (Homo sapiens, UniProt Q16539); construct: purchased Panvera; assay: P-38 alpha kinase assay (spectrophotometric, pyruvate kinase/lactate dehydrogenase coupled); assay type: biochemical; details: read-out: % Inhibition @ concentration, Table 3; at 10 uM
Decide by inhibition at 10 µM: equal to or exceeding 40% means 1, less means 0.

{"molecular-string": "CC(C)(C)c1cc(NC(=O)c2nccc3ccccc23)n(-c2cccc(CCC(=O)O)c2)n1", "system-name": "phospho p-38 alpha kinase (Homo sapiens, UniProt Q16539)", "label-class": 1}
{"molecular-string": "O=C(O)CCc1cccc(-n2nc(C(F)(F)F)cc2NC(=O)Nc2ccc(Cl)cc2)c1", "system-name": "phospho p-38 alpha kinase (Homo sapiens, UniProt Q16539)", "label-class": 1}
{"molecular-string": "COc1cccc(-n2nc(C(C)(C)C)cc2NC(=O)Nc2ccc(N(C)C)cc2)c1", "system-name": "phospho p-38 alpha kinase (Homo sapiens, UniProt Q16539)", "label-class": 1}

[in] Hi, just wondering whether CCOC(=O)CCc1cccc(-n2nc(C)cc2NC(=O)Nc2ccc(Cl)cc2)c1 shows inhibition at 10 µM of 40% or higher.
[out] 0

[in] Is reported inhibition at 10 µM greater than or equal to 40% here: CCOC(=O)CCc1cccc(-n2nc(C(C)(C)C)cc2NC(=O)Nc2ccc(OC)cc2)c1
[out] 0

---

target: phospho p-38 alpha kinase (Homo sapiens, UniProt Q16539); construct: purchased Panvera; experiment: P-38 alpha kinase assay (spectrophotometric, pyruvate kinase/lactate dehydrogenase coupled); format: biochemical; conditions: read-out: % Inhibition @ concentration, Table 3; at 10 uM
measure: inhibition at 10 µM

Here are 5 compounds together with their reported answers.
{"compound": "COc1cccc(NC(=O)Nc2cc(C(C)(C)C)nn2-c2cccc(OC)c2)c1 [Example 326]", "value-reported": "41%"}
{"compound": "Cc1cc(NC(=O)Nc2cccc(Cl)c2Cl)n(-c2ccc(CO)cc2)n1 [Example 450]", "value-reported": "192%"}
{"compound": "CCOC(=O)CCc1cccc(-n2nc(C(C)(C)C)cc2NC(=O)c2ccc3ccccc3c2)c1 [Example 154]", "value-reported": "21%"}
{"compound": "CCOC(=O)CCc1cccc(-n2nc(C(C)(C)C)cc2NC(=O)Nc2cccc3cccnc23)c1 [Example 366]", "value-reported": "53%"}
{"compound": "CC(C)(C)c1cc(NC(=O)Nc2cccc3cccnc23)n(-c2cccc(CCC(=O)O)c2)n1 [Example 367]", "value-reported": "85%"}

Okay, next one:
[in] // map COc1cccc(-n2nc(C(C)(C)C)cc2NC(=O)Nc2cccc(C#N)c2)c1 [Example 325] to recorded inhibition at 10 µM (system: phospho p-38 alpha kinase (Homo sapiens, UniProt Q16539))
[out] 54%
